Taken from patent US4694069A.

Listed below: LYS (lysine) values for each entry.
tested on: mixed intestinal microflora (cecum fluid); test: Swine in vitro model; settings: one level, up to 166.67 ppm; 4-5 h

Below: 3 compounds and their reported LYS (lysine).
CNC1C(=O)NC2C(=O)NC(C(=O)NC3C(=O)NC4C(=O)NC(C(=O)NC(C(=O)O)c5cc(O)cc(OC6OC(CO)C(O)C(O)C6O)c5-c5cc4ccc5O)C(O)c4cc(Cl)c(c(Cl)c4)Oc4cc3cc(c4OC3OC(C(=O)O)C(O)C(O)C3NC(=O)CCCCCCCC(C)C)Oc3ccc(cc3Cl)C2O)c2cc(cc(O)c2Cl)Oc2cc1ccc2O (stereo not shown) = 25 % of control
CNC1C(=O)NC2C(=O)NC(C(=O)NC3C(=O)NC4C(=O)NC(C(=O)NC(C(=O)O)c5cc(O)cc(OC6OC(CO)C(O)C(O)C6O)c5-c5cc4ccc5O)C(O)c4cc(Cl)c(c(Cl)c4)Oc4cc3cc(c4OC3OC(C(=O)O)C(O)C(O)C3NC(=O)CCCCCCCCC(C)C)Oc3ccc(cc3Cl)C2O)c2cc(cc(O)c2Cl)Oc2cc1ccc2O (stereo not shown) = 29 % of control
CCCCCCCCCC(=O)NC1C(Oc2c3cc4cc2Oc2c(Cl)cc(cc2Cl)C(O)C2NC(=O)C(NC(=O)C4NC(=O)C4NC(=O)C(NC(=O)C(NC)c5ccc(O)c(c5)Oc5cc(O)c(Cl)c4c5)C(O)c4ccc(c(Cl)c4)O3)c3ccc(O)c(c3)-c3c(OC4OC(CO)C(O)C(O)C4O)cc(O)cc3C(C(=O)O)NC2=O)OC(C(=O)O)C(O)C1O (stereo not shown) = 35 % of control

Switching to the query record.
**Query** For mixed intestinal microflora (cecum fluid), give the measured LYS (lysine) of the entry COC(=O)N/N=C/c1c[n+]([O-])c2ccccc2[n+]1[O-]
**Result** 79 % of control

====

Listed below: BUT (butyrate) values for each entry.
system: rumen fermentation (strained rumen fluid); assay: Rumen in vitro model; set-up: species or system steer; details: 5.00 ppm; 24 h

Below: 3 compounds and their reported BUT (butyrate).
CNC1C(=O)NC2C(=O)NC(C(=O)NC3C(=O)NC4C(=O)NC(C(=O)NC(C(=O)O)c5cc(O)cc(OC6OC(CO)C(O)C(O)C6O)c5-c5cc4ccc5O)C(O)c4cc(Cl)c(c(Cl)c4)Oc4cc3cc(c4OC3OC(C(=O)O)C(O)C(O)C3NC(=O)CCCCCCCC(C)C)Oc3ccc(cc3Cl)C2O)c2cc(cc(O)c2Cl)Oc2cc1ccc2O (stereo not shown) [AAD-216 B] = 88 % of control
CCCCCCCCCC(=O)NC1C(Oc2c3cc4cc2Oc2c(Cl)cc(cc2Cl)C(O)C2NC(=O)C(NC(=O)C4NC(=O)C4NC(=O)C(NC(=O)C(NC)c5ccc(O)c(c5)Oc5cc(O)c(Cl)c4c5)C(O)c4ccc(c(Cl)c4)O3)c3ccc(O)c(c3)-c3c(OC4OC(CO)C(O)C(O)C4O)cc(O)cc3C(C(=O)O)NC2=O)OC(C(=O)O)C(O)C1O (stereo not shown) [AAD-216 A] = 81 % of control
CC[C@@]1([C@@H]2O[C@@H]([C@H]3O[C@@](O)(CO)[C@H](C)C[C@@H]3C)C[C@@H]2C)CC[C@H]([C@]2(C)CC[C@]3(C[C@H](O)[C@@H](C)[C@@H]([C@@H](C)[C@@H](OC)[C@H](C)C(=O)O)O3)O2)O1 [Monensin, monensin] = 61 % of control

Switching to the query record.
**Query** Give reported BUT (butyrate) value for CNC1C(=O)NC2C(=O)NC(C(=O)NC3C(=O)NC4C(=O)NC(C(=O)NC(C(=O)O)c5cc(O)cc(OC6OC(CO)C(O)C(O)C6O)c5-c5cc4ccc5O)C(O)c4cc(Cl)c(c(Cl)c4)Oc4cc3cc(c4OC3OC(C(=O)O)C(O)C(O)C3NC(=O)CCCCCCCCC(C)C)Oc3ccc(cc3Cl)C2O)c2cc(cc(O)c2Cl)Oc2cc1ccc2O (stereo not shown) [AAD-216 C]
**Result** 83 % of control

====

system: rumen fermentation (strained rumen fluid); experiment: Rumen in vitro model; design: species or system steer; details: 50.00 ppm; 24 h
observed_property: BUT (butyrate)

**Query** For rumen fermentation (strained rumen fluid), give the measured BUT (butyrate) of the entry CC[C@@]1([C@@H]2O[C@@H]([C@H]3O[C@@](O)(CO)[C@H](C)C[C@@H]3C)C[C@@H]2C)CC[C@H]([C@]2(C)CC[C@]3(C[C@H](O)[C@@H](C)[C@@H]([C@@H](C)[C@@H](OC)[C@H](C)C(=O)O)O3)O2)O1 [Monensin, monensin]
**Result** 53 % of control

====

test system: Staphylococcus aureus HH127; assay: In vitro MIC, standard microtiter assay; type: cell-based; settings: Table B
Listed below: MIC values for each entry.
Just the number plus its unit, please.

Below: 4 compounds and their reported MIC.
CNC1C(=O)NC2C(=O)NC(C(=O)NC3C(=O)NC4C(=O)NC(C(=O)NC(C(=O)O)c5cc(O)cc(OC6OC(CO)C(O)C(O)C6O)c5-c5cc4ccc5O)C(O)c4cc(Cl)c(c(Cl)c4)Oc4cc3cc(c4OC3OC(CO)C(O)C(O)C3NC(=O)CCCCCCCC(C)C)Oc3ccc(cc3Cl)C2O)c2cc(cc(O)c2Cl)Oc2cc1ccc2O (centres unmarked) [AAD-609 B] = 1.6 µg/mL
CNC1C(=O)NC2C(=O)NC(C(=O)NC3C(=O)NC4C(=O)NC(C(=O)NC(C(=O)O)c5cc(O)cc(OC6OC(CO)C(O)C(O)C6O)c5-c5cc4ccc5O)C(O)c4cc(Cl)c(c(Cl)c4)Oc4cc3cc(c4OC3OC(CO)C(O)C(O)C3NC(=O)CCCCCCCCC(C)C)Oc3ccc(cc3Cl)C2O)c2cc(cc(O)c2Cl)Oc2cc1ccc2O (centres unmarked) [AAD-609 C] = 1.6 µg/mL
CN[C@H](CC(C)C)C(=O)N[C@H]1C(=O)N[C@@H](CC(N)=O)C(=O)N[C@H]2C(=O)N[C@H]3C(=O)N[C@H](C(=O)N[C@H](C(=O)O)c4cc(O)cc(O)c4-c4cc3ccc4O)[C@H](O)c3ccc(c(Cl)c3)Oc3cc2cc(c3O[C@@H]2O[C@H](CO)[C@@H](O)[C@H](O)[C@H]2O[C@H]2C[C@](C)(N)[C@H](O)[C@H](C)O2)Oc2ccc(cc2Cl)[C@H]1O [Vancomycin, vancomycin] = 1.6 µg/mL
CCCCCCCCCC(=O)NC1C(Oc2c3cc4cc2Oc2c(Cl)cc(cc2Cl)C(O)C2NC(=O)C(NC(=O)C4NC(=O)C4NC(=O)C(NC(=O)C(NC)c5ccc(O)c(c5)Oc5cc(O)c(Cl)c4c5)C(O)c4ccc(c(Cl)c4)O3)c3ccc(O)c(c3)-c3c(OC4OC(CO)C(O)C(O)C4O)cc(O)cc3C(C(=O)O)NC2=O)OC(CO)C(O)C1O (centres unmarked) [AAD-609 A] = 1.6 µg/mL

**Query** Give reported MIC value for CCCCCCCCCC(=O)NC1C(Oc2c3cc4cc2Oc2c(Cl)cc(cc2Cl)C(O)C2NC(=O)C(NC(=O)C4NC(=O)C4NC(=O)C(NC(=O)C(NC)c5ccc(O)c(c5)Oc5cc(O)c(Cl)c4c5)C(O)c4ccc(c(Cl)c4)O3)c3ccc(O)c(c3)-c3c(OC4OC(CO)C(O)C(O)C4O)cc(O)cc3C(C(=O)O)NC2=O)OC(C(=O)O)C(O)C1O (centres unmarked) [AAD-216 A]
**Result** 3.1 µg/mL

====

system: rumen fermentation (strained rumen fluid); assay: Rumen in vitro model; design: species or system steer; conditions: 50.00 ppm; 24 h
Listed below: BUT (butyrate) values for each entry.

Below: 2 compounds and their reported BUT (butyrate).
CNC1C(=O)NC2C(=O)NC(C(=O)NC3C(=O)NC4C(=O)NC(C(=O)NC(C(=O)O)c5cc(O)cc(OC6OC(CO)C(O)C(O)C6O)c5-c5cc4ccc5O)C(O)c4cc(Cl)c(c(Cl)c4)Oc4cc3cc(c4OC3OC(C(=O)O)C(O)C(O)C3NC(=O)CCCCCCCC(C)C)Oc3ccc(cc3Cl)C2O)c2cc(cc(O)c2Cl)Oc2cc1ccc2O (stereo not drawn) = 98 % of control
CNC1C(=O)NC2C(=O)NC(C(=O)NC3C(=O)NC4C(=O)NC(C(=O)NC(C(=O)O)c5cc(O)cc(OC6OC(CO)C(O)C(O)C6O)c5-c5cc4ccc5O)C(O)c4cc(Cl)c(c(Cl)c4)Oc4cc3cc(c4OC3OC(C(=O)O)C(O)C(O)C3NC(=O)CCCCCCCCC(C)C)Oc3ccc(cc3Cl)C2O)c2cc(cc(O)c2Cl)Oc2cc1ccc2O (stereo not drawn) = 88 % of control

Switching to the query record.
**Query** Give reported BUT (butyrate) value for CCCCCCCCCC(=O)NC1C(Oc2c3cc4cc2Oc2c(Cl)cc(cc2Cl)C(O)C2NC(=O)C(NC(=O)C4NC(=O)C4NC(=O)C(NC(=O)C(NC)c5ccc(O)c(c5)Oc5cc(O)c(Cl)c4c5)C(O)c4ccc(c(Cl)c4)O3)c3ccc(O)c(c3)-c3c(OC4OC(CO)C(O)C(O)C4O)cc(O)cc3C(C(=O)O)NC2=O)OC(C(=O)O)C(O)C1O (stereo not drawn)
**Result** 87 % of control
